test: physchem; settings: 25 °C, organic solvent or mixture, thermodynamic from solid, Formoterol Solubility, Chloroform
Structures can show the parent of a compound that is named as a salt.
endpoint.label: solubility at 24 h (µg/mL)
Use µg/mL as the unit, but write only the number.

Give me measured solubility at 24 h, please, for this compound: COc1ccc(CC(C)NCC(O)c2ccc(O)c(NC=O)c2)cc1 (stereo not shown) [formoterol, Formoterol fumarate dihydrate]
2

---

experiment: physchem; conditions: 25 °C, water, thermodynamic from solid, water solubility
Structures can show the parent of a compound that is named as a salt.
endpoint.label: solubility at 24 h (µg/mL)
The reply should contain only the number, in µg/mL.

Note down solubility at 24 h recorded for COc1ccc(CC(C)NCC(O)c2ccc(O)c(NC=O)c2)cc1 (stereo not shown) [formoterol, Formoterol fumarate dihydrate]
1160

---

Experiment: physchem
Conditions: 25 °C, organic solvent or mixture, thermodynamic from solid, Formoterol Solubility, Acetone
Experimental: For variable pH samples, solution pH was adjusted with either hydrochloric acid or sodium hydroxide solutions (1 M Sigma-Aldrich, St. Louis, MO). Vials were rotated gently for 24 hours at 25° C. as previously described (Aodah A, Pavlik A, Karlage K, Myrdal P B. Preformulation Studies on Piperlongumine. PLOS One. 2016; 11(3):e0151707). Test solutions were filtered using 0.45 μm PVDF or PTFE membrane filters (MilliporeSigma, Burlington, MA) for aqueous and organic solvents respectively.
Counter-ions that a name gives are not always drawn.
endpoint.label: solubility at 24 h
Express the reported value numerically, then name its unit.

Find the measured solubility at 24 h of COc1ccc(CC(C)NCC(O)c2ccc(O)c(NC=O)c2)cc1 (stereo not shown) [formoterol, Formoterol fumarate dihydrate] and report it.
63 µg/mL

---

test: physchem; conditions: 25 °C, organic solvent or mixture, thermodynamic from solid, Formoterol Solubility, ACN
Counter-ions that a name gives are not always drawn.
endpoint.label: solubility at 24 h (µg/mL)
Give a bare numeral; the unit µg/mL is implied.

Look up and report measured solubility at 24 h for this entry: COc1ccc(CC(C)NCC(O)c2ccc(O)c(NC=O)c2)cc1 (stereo not shown) [formoterol, Formoterol fumarate dihydrate]
5

---

assay: physchem; settings: 25 °C, organic solvent or mixture, thermodynamic from solid, Formoterol Solubility, DCM
Structures can show the parent of a compound that is named as a salt.
endpoint.label: solubility at 24 h (µg/mL)
Express it in µg/mL; write the number only.

Please give the documented solubility at 24 h of COc1ccc(CC(C)NCC(O)c2ccc(O)c(NC=O)c2)cc1 (stereo not shown) [formoterol, Formoterol fumarate dihydrate]
1
